Measurement description: Antagonist activity at CRTH2 in human eosinophils assessed as inhibition of PGD2-induced shape change by gated autofluorescence forward scatter analysis
Reported metric: IC50 (µM)
Give the value in µM but do not write µM after it.

Smiles str	Reported metric	Measurement
C[C@H](Oc1ccc(F)cc1-c1ccc(C(=O)N2CCCC2(C)C)c(Cl)c1)C(=O)O	IC50	0.044

Switching to the query record.
Exercise: May I ask what IC50 has been recorded for CN(C)c1nc(Cc2ccc(NC(=O)c3ccc(C(F)(F)F)cc3)cc2)nc(N(C)C)c1CC(=O)O ?
Key: 0.626
